measured_quantity: logP
Field format: numeric only.

Item under review: CC(CC(=O)c1ccc(-c2ccccc2)cc1)C(=O)O (stereo unspecified) . Reported logP?
3.13

* * *

assay: method code SF-AS, from DOI: 10.1016/s0021-9673(01)95502-5; conditions: pH 3.4
As shown below, each of these compounds has a reported logD value.
# answer = number (no unit)

> print(dat)
                       compound  test.result
1  COc1ccc(C(=O)CCCC(=O)O)cc1Cl         2.17

# input compound: COc1ccc(C(=O)CC(C)CC(=O)O)cc1Cl (stereo not drawn) ; wanted: its logD
2.6

Can you share its logD? I mean this compound: O=C(O)CCCC(=O)c1ccc(-c2ccccc2)cc1
3.35

Could you tell me which logD is on file for CC(CC(=O)O)CC(=O)c1ccc(-c2ccccc2)cc1 (stereo not drawn) ?
3.82

Using the record for CCC(O)(C(=O)O)c1ccc(CC(C)C)cc1 (stereo not drawn) , report its logD.
3.37
